These entries and their values trace back to ChEMBL document CHEMBL3407461.

- SYSTEM: Voltage-gated inwardly rectifying potassium channel KCNH2 (Homo sapiens, UniProt Q12809)
- Sequence (Q12809 whole entry): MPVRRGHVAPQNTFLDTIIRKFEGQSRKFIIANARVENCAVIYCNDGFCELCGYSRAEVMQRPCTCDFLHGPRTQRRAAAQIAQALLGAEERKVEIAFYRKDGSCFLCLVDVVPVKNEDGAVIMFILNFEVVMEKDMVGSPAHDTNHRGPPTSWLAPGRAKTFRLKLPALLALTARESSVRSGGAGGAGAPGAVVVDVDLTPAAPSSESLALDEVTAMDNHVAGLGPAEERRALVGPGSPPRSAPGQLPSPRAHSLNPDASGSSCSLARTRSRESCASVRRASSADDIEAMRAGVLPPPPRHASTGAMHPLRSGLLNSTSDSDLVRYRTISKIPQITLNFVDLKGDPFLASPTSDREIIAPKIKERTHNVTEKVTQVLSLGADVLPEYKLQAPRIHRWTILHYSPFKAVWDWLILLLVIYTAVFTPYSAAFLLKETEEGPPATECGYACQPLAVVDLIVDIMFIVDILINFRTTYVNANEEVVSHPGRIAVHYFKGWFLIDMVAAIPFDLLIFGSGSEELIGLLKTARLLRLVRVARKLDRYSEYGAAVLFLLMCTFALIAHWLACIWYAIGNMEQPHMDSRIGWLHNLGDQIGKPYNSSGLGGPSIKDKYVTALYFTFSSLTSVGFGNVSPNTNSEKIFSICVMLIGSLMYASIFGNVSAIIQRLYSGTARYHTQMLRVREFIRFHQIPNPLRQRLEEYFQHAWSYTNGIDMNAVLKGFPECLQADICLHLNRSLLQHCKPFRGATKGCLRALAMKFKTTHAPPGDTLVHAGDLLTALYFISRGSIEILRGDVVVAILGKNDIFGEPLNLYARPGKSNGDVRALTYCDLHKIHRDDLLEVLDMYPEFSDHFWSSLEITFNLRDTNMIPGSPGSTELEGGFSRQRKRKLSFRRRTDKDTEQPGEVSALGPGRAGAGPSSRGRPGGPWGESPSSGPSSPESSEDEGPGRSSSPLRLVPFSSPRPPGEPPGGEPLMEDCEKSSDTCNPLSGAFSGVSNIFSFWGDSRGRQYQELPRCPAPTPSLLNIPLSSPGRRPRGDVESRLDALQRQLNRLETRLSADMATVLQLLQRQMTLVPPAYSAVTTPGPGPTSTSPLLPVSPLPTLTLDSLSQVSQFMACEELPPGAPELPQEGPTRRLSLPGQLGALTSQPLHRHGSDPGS
ATTRIBUTE_MEASURED: pIC50
Scale: negative log10 of molar concentration, which is what pIC50 denotes.

Use these answered entries as a reference point.
{"columns": ["LINE_NOTATION", "ENDPOINT_RESULT"],
 "data": [
  ["CNC(=O)[C@@]12C[C@@H]1[C@@H](n1cnc3c(NCc4cccc(Cl)c4)nc(C#Cc4ccc(F)c(F)c4)nc31)[C@H](O)[C@@H]2O", 4.91],
  ["CNC(=O)[C@@]12C[C@@H]1[C@@H](n1cnc3c(NC)nc(C#Cc4ccc(Cl)s4)nc31)[C@H](O)[C@@H]2O", 4.89]
]}

Here is the next item to consider.
Fill in: Voltage-gated inwardly rectifying potassium channel KCNH2 (Homo sapiens, UniProt Q12809) pIC50 for CNC(=O)[C@@]12C[C@@H]1[C@@H](n1cnc3c(NC)nc(C#Cc4ccc(F)c(F)c4)nc31)[C@H](O)[C@@H]2O = 4.57

====

- System: Mus musculus
- MEASUREMENT_DESCRIPTION: Antinociceptive activity in chronic constriction injury neutropathic pain CD-1 mouse model assessed as maximum protection on ipsilateral hind paw at 3 umol/kg, po after 30 mins to 5 hrs post dose relative to control
- Type: functional
- ASSAY_CONDITIONS: CD-1, po
Here the recorded Emax at 3 µmol/kg is given for each entry.
Dear colleague, please return just the value in %, with no unit written.

Reference set, count: 5
{"columns": ["LINE_NOTATION", "Emax at 3 µmol/kg [%]"],
 "data": [
  ["CNC(=O)[C@@]12C[C@@H]1[C@@H](n1cnc3c(NC)nc(C#CC4CCCCC4)nc31)[C@H](O)[C@@H]2O", 64.1],
  ["CNC(=O)[C@@]12C[C@@H]1[C@@H](n1cnc3c(NC)nc(C#Cc4cccs4)nc31)[C@H](O)[C@@H]2O", 100],
  ["CNC(=O)[C@@]12C[C@@H]1[C@@H](n1cnc3c(NC)nc(C#Cc4ccc(-c5ccccc5)cc4)nc31)[C@H](O)[C@@H]2O", 57.7],
  ["CNC(=O)[C@@]12C[C@@H]1[C@@H](n1cnc3c(NC)nc(C#Cc4ccccc4Cl)nc31)[C@H](O)[C@@H]2O", 27.5],
  ["CNC(=O)[C@@]12C[C@@H]1[C@@H](n1cnc3c(NC)nc(C#Cc4ccc(Cl)cc4)nc31)[C@H](O)[C@@H]2O", 40.4]
]}

# compound CNC(=O)[C@@]12C[C@@H]1[C@@H](n1cnc3c(NC)nc(C#Cc4ccc(F)c(F)c4)nc31)[C@H](O)[C@@H]2O ; its Emax at 3 µmol/kg = 99

The recorded Emax at 3 µmol/kg for entry CNC(=O)[C@@]12C[C@@H]1[C@@H](n1cnc3c(NC)nc(C#Cc4ccco4)nc31)[C@H](O)[C@@H]2O equals 100

Emax at 3 µmol/kg for CNC(=O)[C@@]12C[C@@H]1[C@@H](n1cnc3c(NC)nc(C#Cc4cc5ccccc5o4)nc31)[C@H](O)[C@@H]2O is 87.4

Kindly note the recorded Emax at 3 µmol/kg for CNC(=O)[C@@]12C[C@@H]1[C@@H](n1cnc3c(NC)nc(C#CC4CC4)nc31)[C@H](O)[C@@H]2O , which is 54.6

# Emax at 3 µmol/kg of CNC(=O)[C@@]12C[C@@H]1[C@@H](n1cnc3c(NC)nc(C#Cc4ccc(Br)s4)nc31)[C@H](O)[C@@H]2O = 100

Record summary for CNC(=O)[C@@]12C[C@@H]1[C@@H](n1cnc3c(NC)nc(C#Cc4cnn(C)c4)nc31)[C@H](O)[C@@H]2O : reported Emax at 3 µmol/kg = 87.3

Query CNC(=O)[C@@]12C[C@@H]1[C@@H](n1cnc3c(NC)nc(C#Cc4cnccn4)nc31)[C@H](O)[C@@H]2O yields Emax at 3 µmol/kg of 100

The compound listed as CNC(=O)[C@@]12C[C@@H]1[C@@H](n1cnc3c(NC)nc(C#Cc4ccc(Cl)s4)nc31)[C@H](O)[C@@H]2O has a reported Emax at 3 µmol/kg of 93.3

// field: Emax at 3 µmol/kg; key: CNC(=O)[C@@]12C[C@@H]1[C@@H](n1cnc3c(NC)nc(C#Cc4ccccc4OC)nc31)[C@H](O)[C@@H]2O ; value = 64.3

====

- SYSTEM: Adenosine receptor A2a (Mus musculus)
- MEASUREMENT_DESCRIPTION: Displacement of [3H]CGS21680 from mouse A2A adenosine receptor expressed in HEK293 cells at 10 uM after 60 mins by liquid scintillation counting
- Assay type: cell-based
# label = Condition met if inhibition >= 10% else Condition not met

Use these answered entries as a reference point.
{"columns": ["LINE_NOTATION", "DISCRETE_LABEL"],
 "data": [
  ["CNC(=O)[C@@]12C[C@@H]1[C@@H](n1cnc3c(NC)nc(C#Cc4cnccn4)nc31)[C@H](O)[C@@H]2O", "Condition met"],
  ["CNC(=O)[C@@]12C[C@@H]1[C@@H](n1cnc3c(NC)nc(C#Cc4ccc(Cl)s4)nc31)[C@H](O)[C@@H]2O", "Condition not met"],
  ["CNC(=O)[C@@]12C[C@@H]1[C@@H](n1cnc3c(NC)nc(C#Cc4cccs4)nc31)[C@H](O)[C@@H]2O", "Condition not met"],
  ["CNC(=O)[C@@]12C[C@@H]1[C@@H](n1cnc3c(NC)nc(C#Cc4ccco4)nc31)[C@H](O)[C@@H]2O", "Condition met"]
]}

Hi, just wondering whether CNC(=O)[C@@]12C[C@@H]1[C@@H](n1cnc3c(NC)nc(C#Cc4cnn(C)c4)nc31)[C@H](O)[C@@H]2O shows inhibition of 10% or higher.
Condition met

====

- SYSTEM: CYP2D6 (Homo sapiens, UniProt P10635)
- Sequence (P10635 whole entry): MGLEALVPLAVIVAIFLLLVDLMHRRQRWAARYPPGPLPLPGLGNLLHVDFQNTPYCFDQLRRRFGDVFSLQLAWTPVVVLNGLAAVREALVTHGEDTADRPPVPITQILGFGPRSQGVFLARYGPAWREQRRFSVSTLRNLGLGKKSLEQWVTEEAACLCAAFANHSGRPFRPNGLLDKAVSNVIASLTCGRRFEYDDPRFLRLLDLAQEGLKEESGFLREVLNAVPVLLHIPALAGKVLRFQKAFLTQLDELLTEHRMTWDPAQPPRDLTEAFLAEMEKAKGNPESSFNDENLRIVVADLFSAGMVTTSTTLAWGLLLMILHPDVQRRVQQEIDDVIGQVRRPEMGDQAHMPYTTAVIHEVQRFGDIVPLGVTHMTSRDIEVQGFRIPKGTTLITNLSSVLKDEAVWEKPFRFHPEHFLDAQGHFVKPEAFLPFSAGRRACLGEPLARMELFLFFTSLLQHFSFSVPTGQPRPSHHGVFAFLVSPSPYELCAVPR
- MEASUREMENT_DESCRIPTION: Inhibition of CYP2D6 in human microsomes preincubated at 10 uM for 5 mins before substrate addition measured after 10 mins by LC/MS/MS analysis
- Assay type: ADME
ATTRIBUTE_MEASURED: inhibition at 10 min, 10 µM
Quick note: unit goes after the number.

Note to self: inhibition at 10 min, 10 µM recorded for CNC(=O)[C@@]12C[C@@H]1[C@@H](n1cnc3c(NC)nc(C#Cc4ccc(Br)s4)nc31)[C@H](O)[C@@H]2O was 57.5%

====

- SYSTEM: Adenosine receptor A3 (Mus musculus)
- Sequence (Q61618 whole entry): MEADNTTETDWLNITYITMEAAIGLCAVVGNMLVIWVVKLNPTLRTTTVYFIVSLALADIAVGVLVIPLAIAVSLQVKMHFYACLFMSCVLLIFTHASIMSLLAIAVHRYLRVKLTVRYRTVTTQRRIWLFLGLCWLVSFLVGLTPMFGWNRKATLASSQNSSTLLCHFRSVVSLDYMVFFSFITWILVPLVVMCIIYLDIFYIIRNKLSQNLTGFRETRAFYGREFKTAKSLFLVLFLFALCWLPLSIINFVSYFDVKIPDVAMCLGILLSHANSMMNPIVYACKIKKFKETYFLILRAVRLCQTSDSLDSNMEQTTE
ATTRIBUTE_MEASURED: pKi
Units for pKi: none; it is -log10 of a concentration expressed in mol/L.

compound CNC(=O)[C@@]12C[C@@H]1[C@@H](n1cnc3c(NC)nc(C#Cc4ccc(F)c(F)c4)nc31)[C@H](O)[C@@H]2O , pKi observed: 7.07

====

- SYSTEM: UniProtKB P11712
- Sequence (P11712 whole entry): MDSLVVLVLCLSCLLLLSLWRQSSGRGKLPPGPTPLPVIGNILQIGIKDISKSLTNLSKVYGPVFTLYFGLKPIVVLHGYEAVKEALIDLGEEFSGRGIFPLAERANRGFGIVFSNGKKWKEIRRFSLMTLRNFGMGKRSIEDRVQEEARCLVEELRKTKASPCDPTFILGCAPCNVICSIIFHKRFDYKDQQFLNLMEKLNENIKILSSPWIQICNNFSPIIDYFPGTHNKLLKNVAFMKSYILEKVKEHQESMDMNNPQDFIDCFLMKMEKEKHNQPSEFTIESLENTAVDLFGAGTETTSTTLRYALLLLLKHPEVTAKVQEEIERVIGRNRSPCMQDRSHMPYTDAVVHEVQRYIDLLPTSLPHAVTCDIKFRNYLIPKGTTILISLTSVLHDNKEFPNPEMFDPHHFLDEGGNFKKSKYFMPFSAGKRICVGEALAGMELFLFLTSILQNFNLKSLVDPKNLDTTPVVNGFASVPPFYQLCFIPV
- MEASUREMENT_DESCRIPTION: Inhibition of CYP2C9 in human microsomes preincubated at 10 uM for 5 mins before substrate addition measured after 10 mins by LC/MS/MS analysis
- Format: ADME
ATTRIBUTE_MEASURED: inhibition at 10 min, 10 µM (%)
Quick reminder: number only, in %, skip the unit.

Lab note: CNC(=O)[C@@]12C[C@@H]1[C@@H](n1cnc3c(NC)nc(C#Cc4ccc(Br)s4)nc31)[C@H](O)[C@@H]2O gave inhibition at 10 min, 10 µM of 24.2

====

- SYSTEM: Adenosine receptor A2a (Homo sapiens)
- MEASUREMENT_DESCRIPTION: Displacement of [3H]CGS21680 from human recombinant A2A adenosine receptor expressed in HEK293 cells at 10 uM after 60 mins by liquid scintillation counting
- Type: cell-based
ATTRIBUTE_MEASURED: inhibition (%)
Kindly provide the numeric value in % only, without the unit symbol.

Solved entries (count: 5):
{"columns": ["MOLECULE", "SYSTEM", "UNIT_OF_MEASUREMENT", "ENDPOINT_RESULT"],
 "data": [
  ["CNC(=O)[C@@]12C[C@@H]1[C@@H](n1cnc3c(NC)nc(C#Cc4cccnc4)nc31)[C@H](O)[C@@H]2O", "Adenosine receptor A2a (Homo sapiens)", "%", 12],
  ["CNC(=O)[C@@]12C[C@@H]1[C@@H](n1cnc3c(NC)nc(C#Cc4cccc(OC)c4)nc31)[C@H](O)[C@@H]2O", "Adenosine receptor A2a (Homo sapiens)", "%", 26],
  ["CNC(=O)[C@@]12C[C@@H]1[C@@H](n1cnc3c(NC)nc(C#Cc4ccc(-c5ccccc5)cc4)nc31)[C@H](O)[C@@H]2O", "Adenosine receptor A2a (Homo sapiens)", "%", 21],
  ["CNC(=O)[C@@]12C[C@@H]1[C@@H](n1cnc3c(NC)nc(C#Cc4cccnn4)nc31)[C@H](O)[C@@H]2O", "Adenosine receptor A2a (Homo sapiens)", "%", 13],
  ["CNC(=O)[C@@]12C[C@@H]1[C@@H](n1cnc3c(NC)nc(C#Cc4cnn(C)c4)nc31)[C@H](O)[C@@H]2O", "Adenosine receptor A2a (Homo sapiens)", "%", 12]
]}

Now consider a different molecule.
Lab note: CNC(=O)[C@@]12C[C@@H]1[C@@H](n1cnc3c(NC)nc(C#Cc4cccc(C(F)(F)F)c4)nc31)C(O)C2O (single isomer, unassigned) gave inhibition of 12
